# target: T1, extracellular domain (ECD) of recombinant human Sortilin with a C-terminal HIS tag (ECD-huSortilin-HIS) (human, UniProt Q99523 78-755)
# T1 construct: Bought (R&D Systems); also called human sortilin-ECD; not shown: C-terminal HIS tag
# T1 sequence: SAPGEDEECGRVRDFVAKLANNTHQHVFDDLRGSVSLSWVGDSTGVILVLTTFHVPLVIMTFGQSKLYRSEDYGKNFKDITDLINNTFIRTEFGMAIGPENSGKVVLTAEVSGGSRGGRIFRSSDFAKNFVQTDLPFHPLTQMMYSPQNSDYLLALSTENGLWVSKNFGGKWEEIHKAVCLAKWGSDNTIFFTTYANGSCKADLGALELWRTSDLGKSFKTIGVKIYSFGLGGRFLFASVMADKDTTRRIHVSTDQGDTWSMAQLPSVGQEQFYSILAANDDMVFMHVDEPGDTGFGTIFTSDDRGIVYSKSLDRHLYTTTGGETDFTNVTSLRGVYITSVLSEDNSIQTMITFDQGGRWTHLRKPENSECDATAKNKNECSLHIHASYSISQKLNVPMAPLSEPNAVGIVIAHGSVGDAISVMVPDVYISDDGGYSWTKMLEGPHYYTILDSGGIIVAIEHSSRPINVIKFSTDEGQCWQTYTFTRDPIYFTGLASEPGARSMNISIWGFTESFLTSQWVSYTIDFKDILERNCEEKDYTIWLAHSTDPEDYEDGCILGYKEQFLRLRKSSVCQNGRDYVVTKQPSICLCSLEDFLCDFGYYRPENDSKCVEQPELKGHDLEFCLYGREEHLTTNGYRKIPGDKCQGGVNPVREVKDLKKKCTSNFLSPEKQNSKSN
# assayComment: SPR (Biacore T200), mAb captured by anti-human antibody on CM5, Sortilin 0.1-300 nM as analyte, global 1:1 fit
quantity: koff
Give the figure together with its unit, number first.

Q: Please report the recorded koff for humanized 8H24 hu8H24VHv1/hu8H24VLv1 (antibody, V domains shown, Human IgG; also called 8H24H1L1) VH: QAQLVQSGAEVKKPGSSVKVSCKASGYTFTSYSMHWVRQAPGQGLEWIGAIYPGNDATSYNQKFKGRATLTVDKSTSTAYMELSSLRSEDTAVYFCAREGYYGSSFEAWFASWGQGTTVTVSS VL: DVVMTQTPLSLPVTPGEPASISCRSSQSIVHSNGNTYLEWYLQKPGQSPQLLIYKVSNRFSGVPDRFSGSGSGTDFTLKISRVEAEDVGVYYCFQGSHVLPTFGGGTKVEIK .
Ans: 0.00141 s⁻¹
